# Tested on: HCT-116 colon
# test: NCI tumour cell line growth inhibition, 48 h
experimental readout: TGI

Worked examples follow.
| compound | target system | experimental readout | result |
| --- | --- | --- | --- |
| CCOC(=O)C1=COC(C)(c2ccccc2)CC1=O (stereo unspecified) | HCT-116 colon | TGI | > 100 µM |
| CC(=O)Oc1ccc(CO)cc1OC(C)=O | HCT-116 colon | TGI | > 100 µM |
| O=c1c2ccccc2[nH]c(=S)n1-c1ccc(N=Nc2cccc3cc(O)ccc23)cc1 | HCT-116 colon | TGI | > 100 µM |
| C[C@H](CCC(=O)O)[C@H]1CC[C@H]2[C@@H]3[C@H](O)C[C@@H]4C[C@H](O)CC[C@]4(C)[C@H]3CC[C@]12C | HCT-116 colon | TGI | > 100 µM |
| CC1SC(c2c(Cl)cccc2Cl)N(NC(=O)C(O)c2ccccc2)C1=O (stereo unspecified) | HCT-116 colon | TGI | > 100 µM |
| O=C(NNS(=O)(=O)c1ccc(F)cc1)c1cccnc1Nc1ccc(Cl)cc1Cl | HCT-116 colon | TGI | > 100 µM |

Could I get TGI for every one of these entries?
1. COc1ccc(C(=O)C(C(=O)C(=O)Nc2nccs2)c2ccc(OC)cc2)cc1 (stereo unspecified)
2. CC(C)(Oc1ccc2c(=O)cc(-c3ccccc3)oc2c1)C(=O)Nc1c(Cl)cccc1Cl

A.
["> 100 µM", "> 100 µM"]

Fill in TGI for each of the 3 compounds listed.
1. C[N+](C)(C)CC(=O)N/N=C(/CC1OC(=O)c2ccccc21)c1ccccc1O (stereo unspecified)
2. CCSC1=N/C(=C/c2ccccc2O)C(=O)N1
3. COc1cc2c([C@@H](OC(=O)c3ccccc3)c3ccc4c(c3)OCO4)nccc2c(OC)c1OC

A.
> 100 µM
> 100 µM
> 100 µM

###

Please go through the items and note down their TGI.
# System: HOP-62 NSCLC
# test: NCI tumour cell line growth inhibition, 48 h

| molecule | target system | TGI |
| --- | --- | --- |
| COc1ccc(C(=O)N(C(=O)N2CCN(c3ccccc3)CC2)S(=O)(=O)c2ccccc2)cc1 | HOP-62 NSCLC | > 100 µM |

Quick batch: TGI for everything below.
1. CC1(C)N=C(C(=O)c2ccccc2)N(O)C1(O)c1ccccc1 (configuration not stated)
2. C=C1CC2(CCCC3(CC(=C)C(=O)O3)C2(C)C)OC1=O (configuration not stated)
3. NC(=S)N1N=C(c2ccccc2O)CC1c1ccccc1 (configuration not stated)
4. Cc1ccccc1NC(=O)CC(=O)N1N=C(N2c3ccccc3Sc3ccccc32)CC1c1ccccc1 (configuration not stated)
5. Cc1n[nH]c(=O)n1/N=C/c1ccncc1
6. CC(=O)Oc1cc(C)c(OC(C)=O)c2c1[C@H]1CC[C@]3(C)[C@@H](OC(C)=O)CC[C@H]3[C@@H]1CC2
7. CC(=O)C(=[N+]=[N-])C(=O)OCCOC(=O)C(=[N+]=[N-])C(C)=O
8. O=C(O)c1cc(Cc2ccc(O)c(C(=O)O)c2)ccc1O (tested in a mixture with another compound)

A.
1: > 100 µM; 2: 30.8 µM; 3: 25.5 µM; 4: > 100 µM; 5: > 100 µM; 6: 34.4 µM; 7: > 1 µM; 8: 26.6 µM

Provide TGI for all items below, preserving their order.
1. O=S(=O)(NCCNc1cc(-c2cn(-c3ccccc3)nc2-c2cccc(O)c2)ccn1)c1ccc(Cl)cc1
2. CCNc1nc2c(ncn2C2CC(O)C(COP(=O)(O)O)O2)c(=O)[nH]1 (configuration not stated)
3. O=C(CNc1ncco1)Nc1ccc(S(=O)(=O)c2ccc(NC(=O)CNc3ncco3)cc2)cc1
4. O=C1CCCCCC1CC(Sc1ccccc1)Sc1ccccc1 (configuration not stated)
5. Cn1c2ccccc2c2nc3ccccc3c(Cl)c21

A.
13.7 µM
> 100 µM
4.09 µM
> 100 µM
> 100 µM

Quick request: TGI for each listed item, please.
1. CNC(=O)CNC(=O)C(Cc1ccc(NC(=O)CCCCC(C)=O)cc1)NC(=O)C(CCC(=O)OCc1ccccc1)NC(=O)OC(C)(C)C (configuration not stated)
2. CCOC(=O)C1=COC(C)(c2ccccc2)CC1=O (configuration not stated)
3. C[N+](C)(C)CC(=O)N/N=C(/CC1OC(=O)c2ccccc21)c1ccccc1O (configuration not stated)

A.
["> 100 µM", "> 100 µM", "> 100 µM"]
